// provenance: patent US6673827B1

Listed here: items and their measured MFC.
# Tested on: Cryptococcus neoformans SLP-BC0012854
# experimentalDetails: In vitro study of inhibition of growth and lethality against yeast (MIC/MLC susceptibility test), isolate H
# Format: cell-based
# experimentalSetup: SLPBC0012854; Cryptococcus neoformans, 2nd pair of lines; isolate assigned by line order; read-out: Minimum Lethal Conc. (MLC)
Supply the numeric figure in µg/mL, leaving out any unit text.

// query Value lookup for MFC; key = COC(=O)c1cc2cc(OCc3ccccc3)ccc2n1CCCCCCCOC(=O)Cc1ccc([N+](C)(C)C)cc1.[I-]
// result 4

----------
Each entry below carries its reported IC50.
# assaySystem: NAD synthetase (recombinant protein from B. subtilis; purified) (Bacillus subtilis)
# Construct: made in house
# Sequence (P08164 whole entry): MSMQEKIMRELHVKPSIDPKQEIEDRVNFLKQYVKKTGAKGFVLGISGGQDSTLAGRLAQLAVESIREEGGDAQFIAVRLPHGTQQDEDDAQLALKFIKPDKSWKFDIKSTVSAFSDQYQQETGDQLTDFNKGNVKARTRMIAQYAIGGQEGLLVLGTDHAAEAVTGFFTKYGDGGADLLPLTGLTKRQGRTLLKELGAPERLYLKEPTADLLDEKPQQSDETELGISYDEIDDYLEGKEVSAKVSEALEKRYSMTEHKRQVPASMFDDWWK
# experimentalDetails: NAD synthetase enzyme inhibition assay (coupled enzymatic assay, HTS)
# Assay type: biochemical
Field format: number, assumed µM, no unit text.

                                smilesinput  recordedmeasurement
0  COC(=O)c1cc2cc(OCc3ccccc3)ccc2n1CCCCCCCOC(=O)Cc1ccc([N+](C)(C)C)cc1.[I-]                   10

// query Data request, read-out IC50, for C[N+](C)(C)c1ccc(CC(=O)OCCCCCCCCOc2ccc(OCc3ccccc3)cc2)cc1.[I-]
// result 20
